- ASSAY PROTOCOL: human hepatoma cell viability loss – ATP luminescence, cytotoxicity control for P. falciparum antimalarial project, primary screen (AID 2303)
- CONDITION NOTES: HepG2 viability, 24-48 h, at 10 µM, active compounds read high
Could you please mark Fulfilled for values of inhibition below 20% and Not fulfilled for values at or above it?

The following compounds have reported results that may help.
CCOC(=O)c1c(NC(=O)c2ccccc2)sc2c(O)c(CN(CC)CC)ccc12: Fulfilled
COc1cc(-c2nc(-c3ccccc3)c(-c3ccc([N+](=O)[O-])cc3)[nH]2)cc(OC)c1O: Fulfilled
Cc1cc(C2CCN(CCCCNC(=O)c3ccc(-c4ccc(C(F)(F)F)cc4)cc3)CC2)c(C)cc1OCC(N)=O: Not fulfilled
O=C(Nc1ccc(-c2cccc(-c3nc4ccc(C(F)(F)F)cc4[nH]3)c2)cc1)c1csnn1: Not fulfilled
O=C(Cn1c(CCc2cccc(F)c2F)cc(=O)c2cccnc21)N(CCn1ccnc1)Cc1ccc(-c2ccc(C(F)(F)F)cc2)cc1: Not fulfilled

Does this compound meet the criterion inhibition < 20%? "COc1ccc2ccccc2c1CNCCCCCCNCc1c(OC)ccc2ccccc12"
Not fulfilled

# check: inhibition < 20% for CCc1ccc(CN2CCC(CNC(=O)c3cc(-c4ccccc4Cl)cs3)C2)cc1 (stereo unspecified)
Fulfilled

Please let me know if COc1ccccc1C(=O)C1CCCN(C(=O)c2ccccc2C(F)(F)F)C1 (stereo unspecified) shows inhibition below 20%.
Fulfilled
